These entries and their values trace back to patent US20120231006A1.

target: T1, mOrai1-hOrai1 ECL2 (VIV) protein (human/mouse chimera, UniProt Q8BWG9 1-304 (mouse entry))
T1 construct: also called Ch
T1 sequence (Q8BWG9 other isoform, or with tags, fused parts or gaps): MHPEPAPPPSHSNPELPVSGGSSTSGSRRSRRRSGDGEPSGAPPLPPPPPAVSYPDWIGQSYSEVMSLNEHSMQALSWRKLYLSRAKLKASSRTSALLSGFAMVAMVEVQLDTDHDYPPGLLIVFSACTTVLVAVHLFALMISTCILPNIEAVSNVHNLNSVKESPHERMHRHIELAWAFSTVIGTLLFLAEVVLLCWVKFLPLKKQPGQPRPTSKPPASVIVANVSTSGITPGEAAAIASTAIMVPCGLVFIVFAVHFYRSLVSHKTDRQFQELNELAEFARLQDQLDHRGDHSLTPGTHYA
assay notes: FACS, 293EBNA, RFI-POC grade
Parameters: concentration or dose not given beside the values
binders and their reported POC (percent of control, FACS Geo Mean relative to binding to Ch. 1)
reported metric: POC (percent of control, FACS Geo Mean relative to binding to Ch. 1)

# binder, result
data = [
    ("mAb 5B1.1 (antibody, human IgG2, lambda, V domains shown, fully human IgG2 lambda, Campaign 2; also called mAb 5Bl1.1) VH: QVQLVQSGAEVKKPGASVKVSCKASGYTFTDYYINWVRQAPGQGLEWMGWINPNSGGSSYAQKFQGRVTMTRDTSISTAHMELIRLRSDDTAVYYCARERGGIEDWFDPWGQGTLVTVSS VL: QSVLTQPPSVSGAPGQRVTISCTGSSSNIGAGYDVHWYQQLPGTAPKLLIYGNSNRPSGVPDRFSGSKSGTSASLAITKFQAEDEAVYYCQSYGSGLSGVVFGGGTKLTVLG", "40 to 100%"),
    ("mAb 5A4.2 (antibody, human IgG2, lambda, V domains shown, fully human IgG2 lambda, Campaign 2) VH: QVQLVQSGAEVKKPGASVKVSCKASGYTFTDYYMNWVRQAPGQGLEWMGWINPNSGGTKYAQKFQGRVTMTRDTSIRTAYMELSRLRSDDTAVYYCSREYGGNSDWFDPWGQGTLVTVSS VL: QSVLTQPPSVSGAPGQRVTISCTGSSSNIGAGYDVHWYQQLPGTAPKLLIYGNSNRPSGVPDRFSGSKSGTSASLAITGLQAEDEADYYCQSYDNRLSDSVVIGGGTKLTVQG", "40 to 100%"),
]
